# test.system: T1, cynomolgus BLyS (full length, arginine to histidine at position 132) on CHO-K1 cells (cynomolgus, UniProt Q9Y275 1-285 (human entry))
# T1 construct: also called cyno BLyS; CHO-K1 cynoBLyS
# T1 chain: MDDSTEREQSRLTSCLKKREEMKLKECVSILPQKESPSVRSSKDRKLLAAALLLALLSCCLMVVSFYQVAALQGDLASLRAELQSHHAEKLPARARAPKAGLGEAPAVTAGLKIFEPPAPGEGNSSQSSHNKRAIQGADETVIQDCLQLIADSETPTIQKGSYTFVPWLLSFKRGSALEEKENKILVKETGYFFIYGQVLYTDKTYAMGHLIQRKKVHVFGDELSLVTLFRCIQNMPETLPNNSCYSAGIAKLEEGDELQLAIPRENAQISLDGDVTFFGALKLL
# protocol.details: flow cytometry, CHO-K1 cynoBLyS cells, antibody 0 nM
assay.endpoint: MFI (MFI)
Write the answer as a number in MFI, unit excluded.

Example results:
- binder: "67A2E1D10 (antibody, V domains shown, Mouse hybridoma monoclonal antibody purified on Protein G) VH: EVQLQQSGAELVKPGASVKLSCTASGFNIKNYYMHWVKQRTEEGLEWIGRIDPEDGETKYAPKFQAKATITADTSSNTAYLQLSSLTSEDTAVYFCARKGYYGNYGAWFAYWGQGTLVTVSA VL: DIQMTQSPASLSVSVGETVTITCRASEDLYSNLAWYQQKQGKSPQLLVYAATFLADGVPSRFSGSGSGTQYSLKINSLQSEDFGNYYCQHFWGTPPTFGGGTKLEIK"
  MFI, MFI: 20.3
- binder: "93C6F10D3 (antibody, V domains shown, Mouse hybridoma monoclonal antibody purified on Protein G) VH: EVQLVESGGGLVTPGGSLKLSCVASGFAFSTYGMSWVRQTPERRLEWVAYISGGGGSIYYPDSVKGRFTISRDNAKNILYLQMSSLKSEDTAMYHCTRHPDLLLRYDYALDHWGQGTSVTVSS VL: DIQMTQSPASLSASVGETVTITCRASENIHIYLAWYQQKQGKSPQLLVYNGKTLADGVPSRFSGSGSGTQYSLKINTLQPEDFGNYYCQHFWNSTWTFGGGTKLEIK"
  MFI, MFI: 21.9

Now turn to the next binder.
Which MFI is listed for 8E7D9C7F5 (antibody, V domains shown, Mouse hybridoma monoclonal antibody purified on Protein G) VH: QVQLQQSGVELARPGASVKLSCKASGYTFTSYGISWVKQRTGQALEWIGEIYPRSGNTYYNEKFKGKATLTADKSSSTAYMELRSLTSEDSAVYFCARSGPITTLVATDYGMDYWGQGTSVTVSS VL: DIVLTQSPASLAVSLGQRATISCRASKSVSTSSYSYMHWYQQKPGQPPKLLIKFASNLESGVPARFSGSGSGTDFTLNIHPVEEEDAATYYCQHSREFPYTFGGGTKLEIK ?
19.8
